Reference source: patent EP4592276A1

Tested on: HuH-7 cells
Test: Cell viability in HuH-7 cells (CellTiter-Blue)
Assay type: cell-based, human
Conditions: 50 µM, 24 h incubation; mean of triplicates ± standard deviation
Method: In order to assess cytotoxic effects of compounds in cell culture, HuH-7 cells were incubated in presence of these compounds in a 96-well plate for 2 h or 24 h. In order to generate a calibration curve for cell viability, a serial dilution (1:2 dilution series) of cells was seeded into control wells. Measurement of cell viability is based on the assay development using CellTiter-Blue reagent (Resazurin, blue color), which is reduced to resofurin (pink color) by viable cells. […]
Counter-ions that a name gives are not always drawn.
MEASURED ATTRIBUTE: Cell Viability in HuH7 at 50 µM, 24 h Incubation (%)

{"columns": ["COMPOUND", "OBSERVED RESULT"],
 "data": [
  ["CN(C)CCc1cn(C(=O)OCc2ccccc2)c2cccc(O)c12 [Compound 10]", -1.3],
  ["CCN(C)CCc1c[nH]c2cccc(OC(=O)c3ccco3)c12.CCN(C)CCc1c[nH]c2cccc(OC(=O)c3ccco3)c12.O=C(O)/C=C/C(=O)O [Compound 8j]", 78.0],
  ["CCN(C)CCc1c[nH]c2cccc(OCOC(=O)C(C)(C)C)c12 [Compound 15c]", 47.1],
  ["O=C1NC(=O)C(c2ccccc2)(c2ccccc2)N1 [Phenytoin, reference compound]", 84.2],
  ["CCN(C)CCc1cn(C(=O)OCc2ccccc2)c2cccc(O)c12 [Compound 11]", -2.1],
  ["CCCC(=O)OCOc1cccc2[nH]cc(CCN(C)C)c12 [Compound 15b]", 79.3],
  ["CCCCCC(=O)Oc1cccc2[nH]cc(CCN(C)CC)c12 [Compound 8c, reference compound]", 74.3],
  ["CCN(C)CCc1c[nH]c2cccc(O)c12 [4-OH-MET fumarate 17, reference compound]", 82.9],
  ["CN(C)CCc1c[nH]c2cccc(OCOC(=O)C(C)(C)C)c12 [Compound 15a]", 61.6],
  ["CN(C)CCc1c[nH]c2cccc(O)c12 [Psilocin 1, 4-Hydroxy-N,N-dimethyltryptamine, reference compound]", 72.5],
  ["CCCC(=O)Oc1cccc2[nH]cc(CCN(C)CC)c12 [Compound 8b]", 83.7],
  ["CCCC(=O)OCOc1cccc2[nH]cc(CCN(C)CC)c12 [Compound 15d]", 80.6],
  ["CCN(C)CCc1c[nH]c2cccc(OC(=O)C3CC3)c12.CCN(C)CCc1c[nH]c2cccc(OC(=O)C3CC3)c12.O=C(O)/C=C/C(=O)O [Compound 8e]", 81.7],
  ["CCN(C)CCc1c[nH]c2cccc(OC(=O)CC(C)(C)C)c12 [Compound 8h]", 42.3],
  ["CCN(C)CCc1c[nH]c2cccc(OC(=O)c3ccccc3)c12 [Compound 8i]", 80.1],
  ["CCN(C)CCc1c[nH]c2cccc(OC(=O)C(C)C)c12 [Compound 8d]", 82.1],
  ["CN(C)CCCN1c2ccccc2CCc2ccccc21 [Imipramine HCl, reference compound]", 24.4]
]}

----------
Test system: HuH-7 cells
Test: Cell viability in HuH-7 cells (CellTiter-Blue)
Format: cell-based, human
Details: 50 µM, 24 h incubation; mean of triplicates ± standard deviation
This section presents molecules with their documented Cell Viability in HuH7 at 50 µM, 24 h Incubation values.
MEASURED ATTRIBUTE: Cell Viability in HuH7 at 50 µM, 24 h Incubation (%)

{"columns": ["MOLECULE", "OBSERVED RESULT"],
 "data": [
  ["CC(=O)Oc1ccccc1C(=O)O [Acetylsalicylic acid, reference compound]", 83.8],
  ["NS(=O)(=O)c1cc(C(=O)O)c(NCc2ccco2)cc1Cl [Furosemide, reference compound]", 90.7],
  ["CCN(C)CCc1c[nH]c2cccc(OC(=O)CC(C)C)c12 [Compound 8g]", 79.8],
  ["CCN(C)CCc1c[nH]c2cccc(OC(=O)C(C)(C)C)c12 [Compound 8f]", 79.4],
  ["CCN(C)CCc1c[nH]c2cccc(OC(C)=O)c12 [Compound 8a, reference compound]", 85.4]
]}
